Test system: NCI-H460 lung
Assay: NCI-60 one-dose screen, 48 h (100 = growth as untreated, 0 = no growth, -100 = all killed)
Settings: 10 µM
About 83,000 compounds went through this panel and 20% of them were active in at least one assay; those are over-represented in the sample as a whole.
Readout: growth (%)
Report as a plain number; the unit % is understood.

compound=C[C@H]1[C@H](C)CC[C@]2(COC(=O)CCC(=O)NCC#CCN3CCNCC3)CC[C@]3(C)C(=CC[C@@H]4[C@@]5(C)CCCNC(C)(C)[C@@H]5CC[C@]43C)[C@H]12 quantitative_readout=9.64
compound=O=C(CNc1nc(-c2ccccc2)cs1)Nc1ccc([N+](=O)[O-])cc1Cl quantitative_readout=51.6
compound=O=C(NO)c1ccc(Cn2ccc3c(NCc4ccccc4)ncnc32)cc1 quantitative_readout=11.1

The recorded growth for CO[C@H]1CSS[C@@H]1Cn1nc(-c2ccc(Oc3ccccc3)cc2)c2c(N)ncnc21 is 21.1

Consider CC1(c2ccccc2)NC(=O)N(CC(=O)Nc2ccc(C(=O)/C=C/C=C/c3ccccc3)cc2)C1=O (stereo not drawn) . Its measured growth is 73.2

The compound listed as CC(=O)c1cc(C(=O)N2c3ccccc3Sc3ccccc32)n2ccc(C)cc12 has a reported growth of 12.3

Field growth (entry COc1cc(Cn2c(C(F)(F)F)cc3c(Cl)ncnc32)ccn1 ) reads 2.75

For record O=C(CSc1nnc(-c2c[nH]c3ccccc23)n1-c1ccccc1)c1ccccc1 the listed growth is 61.8

// CCOc1ccc(/C=N/NC(=O)Cn2nc(Cc3ccccc3)c3onc(C)c3c2=O)cc1 : growth value = 16.7

Query COc1ccc(CCN2C(=O)/C(=C/c3csc(C#N)n3)SC2=S)cc1OC yields growth of 98.4

Record summary for O=C(N/N=C/c1ccc(-c2cccc([N+](=O)[O-])c2)o1)c1[nH]c2ccc(Br)cc2c1-c1ccccc1 : reported growth = 9.61

// growth lookup, compound = O=c1[nH]c2ccccc2cc1CSc1ccc(Nc2nccc(-c3ccc4ccccc4c3)n2)cc1 , result: 24.3

Notebook: Cc1cc(C(F)(F)F)ccc1C(=O)Nc1sc2c(c1C#N)CCC(=O)C2 , growth read as 4.71

Looking up O=C(CSc1nnc(-c2ccc3nc(-c4ccc(Cl)cc4)[nH]c3c2)o1)Nc1ccc(Br)cc1 , I see its growth listed as -82.7

Sample C/C(=C\CC/C=C(\C)CC/C=C(\C)CC[C@@H](O)C(C)(C)O)CC/C=C(\C)CC[C@@H](O)C(C)(C)O ; growth observed: 32

---

Reported growth values are given for each entry in this list.
Test system: MCF7 breast
Experiment: NCI-60 one-dose screen, 48 h (100 = growth as untreated, 0 = no growth, -100 = all killed)
Conditions: 10 µM
About 83,000 compounds went through this panel and 20% of them were active in at least one assay; those are over-represented in the sample as a whole.
Give the number; % is assumed, so skip it.

compound=COc1cc2c3c(n(CCCN4CCOCC4)c(=O)c2cc1OC)-c1nc2c(cc1C3=O)OCO2 quantitative_readout=14
compound=CC(=O)NNc1ccc2nnc(-c3ccc(Br)cc3)n2n1 quantitative_readout=87.8
compound=COc1ccc2[nH]c(O)c(N=NC(=O)COc3ccc(NC(=O)Nc4ccc(Cl)c(Cl)c4)cc3)c2c1 quantitative_readout=-26
compound=COc1ccc(/C=C/C(=O)c2ccc(S(=O)(=O)NCCNc3nc(Nc4ccc(F)cc4)nc(N(C)C)n3)cc2)cc1 quantitative_readout=-15.2
compound=O=c1[nH][nH]c(Nc2ccccc2)c1N=Nc1ccc(F)cc1 quantitative_readout=13.9

Assay MCF7 breast, sample CC(C)C1=C[C@@]23CC[C@@H]4[C@](C)(CCC[C@]4(C)C(=O)NCc4ccccc4)[C@H]2C[C@@H]1[C@H]1C(=O)OC(=O)[C@H]13 , growth read: 13.2

Param item: CC(=O)Nc1ccc(-c2cn(-c3cccc(C(=O)Nc4cccc(OC(F)(F)F)c4)c3)nn2)cn1 ; param system: MCF7 breast; output growth: 70.1

Item: Cc1ccc(C(C)C)cc1NC(=O)c1ccccc1O | System: MCF7 breast | growth: 40.2

---

Tested on: OVCAR-4 ovarian
Experiment: NCI-60 one-dose screen, 48 h
Settings: 10 µM
This is part of a sample that, as a whole, favours compounds with a hit. Of some 83,000 tested, about 20% had one in any assay. The source made the active and inactive calls. How the source made its calls: active means growth percent below 10; inactive means the rest.
# valid calls are Y for active, N for inactive; nothing else

Previously resolved entries follow.
molecule=CCCCSc1nc(Nc2ccc(/C(C)=N/NC(N)=S)cc2)c(C#N)c(-c2ccccc2)n1 discrete_label=Y
molecule=Oc1ccc(/C=C2\CCCc3cc4ccc(O)cc4[o+]c32)c(O)c1 discrete_label=N
molecule=COc1ccc(OC)c(/C=N/NC(=O)c2ccc3nc(-c4ccc(Cl)cc4)[nH]c3c2)c1 discrete_label=N
molecule=O=C(CSc1nnc(-c2ccc3nc(-c4ccccc4)[nH]c3c2)o1)Nc1ccc(Cl)cc1 discrete_label=N
molecule=Cc1ccc(/C=C/C(=O)c2ccc(S(=O)(=O)NCCNc3nc(Nc4ccc(F)cc4)nc(N(C)C)n3)cc2)cc1 discrete_label=N

**Q:** Called result for O=C(c1ccc(O)cc1)C1[C@H](c2ccccc2Br)[C@@H](c2ccccc2)NC12C(=O)Nc1ccc(Cl)cc12 (stereo partly drawn)
**A:** N

**Q:** For this molecule, state the assay outcome: NC(=Nc1ccc(OCCCCCCCCn2ccnn2)cc1)c1ccccc1
**A:** N

**Q:** Called result for COc1cc2c3c(n(CCCNC(C)C)c(=O)c2cc1OC)-c1nc2c(cc1C3=O)OCO2
**A:** N

**Q:** Test call for this molecule, please: CCCn1c(=O)c2[nH]c(-c3ccc(OCc4nc5ccc(C(F)(F)F)cc5[nH]4)cc3)nc2n(CCC)c1=O
**A:** N

**Q:** Hi, sorry to bother you, what did the test record for CN(C)c1cccc2c(S(=O)(=O)Nc3cccc(-c4csc(NC(=O)CCCCCN5CCN(c6cc7c(cc6F)C(=O)N(C6CCC(=O)NC6=O)C7=O)CC5)n4)c3)cccc12 (stereo not drawn) ?
**A:** N

**Q:** Please indicate how the test categorized CCCn1c(=O)c2[nH]c(-c3ccc(OCc4nc5ccc(F)cc5[nH]4)cc3)nc2n(CCC)c1=O .
**A:** Y

**Q:** Please share the test call associated with O=C(N/N=C/c1ccc(B(O)O)o1)c1[nH]c2ccc(Br)cc2c1-c1ccccc1 .
**A:** N

**Q:** Could you kindly confirm the outcome this assay logged for CCCCSc1nc(Nc2ccc(/C(C)=N/NC(N)=S)cc2)c(C#N)c(-c2ccc(OC)cc2)n1 ?
**A:** Y

**Q:** Could you kindly confirm the outcome this assay logged for CC(=O)NNc1ccc2nnc(-c3ccc(Br)cc3)n2n1 ?
**A:** N

**Q:** Tell me the recorded outcome of this test for CCOc1ccc2ncc(C#Cc3cncc(C(=O)Nc4ccc(CN5CCN(C)CC5)c(C(F)(F)F)c4)c3)n2n1 .
**A:** Y

**Q:** Per the records of this test, what outcome belongs to Cc1ccc(-c2ccc(SCC(=O)Nc3ccc(Cl)c(C(F)(F)F)c3)nn2)cc1 ?
**A:** N

**Q:** Entry CNC(=O)c1cc(-c2ccc(NC(=O)Nc3ccc(C)cc3)cc2)nc2cccnc12 : call = ?
**A:** N

**Q:** Just curious, what result did COc1ccc(-c2nc(-c3ccccc3)c(-c3ccccc3)n2-c2ccc(S(=O)(=O)Nc3ncccn3)cc2)cc1OC get here?
**A:** N

---

System: BT-549 breast
Assay: NCI-60 one-dose screen, 48 h
Conditions: 10 µM
Description: Growth inhibition of the BT-549 human tumor cell line is measured as a screen for anti-cancer activity. Cells are grown in 96 well plates and exposed to the test compound for 48 hours. Compounds are tested at a single concentration, which is 10^-5 M for most compounds. The reported endpoint is percent growth (GI% or GIPRCNT), where numbers from 0 - 100% represent growth inhibition, and numbers from -100% - 0 represent cell death. For example, a value of 40 represents 60% growth inhibition. […]
About 83,000 compounds went through this panel and 20% of them were active in at least one assay; those are over-represented in the sample as a whole. The source made the active and inactive calls. How the source made its calls: active means growth percent below 10; inactive means the rest.
Please answer using one outcome listed in active, inactive

Worked cases, answers included:
compound=N#Cc1c(-c2ccc(Cl)cc2)cc(-c2ccccc2)nc1OCc1ccccc1 discrete_label=inactive
compound=O=C(Nc1ccc(Cl)c(C(F)(F)F)c1)c1cncc(C#Cc2cnc3ccc(N4CCOCC4)nn23)c1 discrete_label=active
compound=CCCn1c(O)c(N=Nc2nc(-c3cc4ccccc4oc3=O)cs2)c2cc(Br)ccc21 discrete_label=inactive
compound=COc1cc(OC(F)(F)F)ccc1C(=O)Nc1sc2c(c1C#N)CCC(=O)C2 discrete_label=inactive
compound=CC(C)C1=C[C@@]23CC[C@@H]4[C@](C)(CCC[C@]4(C)C(=O)NCc4ccccc4)[C@H]2C[C@@H]1[C@H]1C(=O)CCC(=O)[C@H]13 discrete_label=inactive
compound=COc1ccc(/C=N/N=C(\C)c2ccc3c(c2)Nc2ccccc2S3)cc1O discrete_label=inactive
compound=CCN1CCN(Cc2ccc(NC(=O)c3cccc(-n4cc(-c5ccc(NC(C)=O)nc5)nn4)c3)cc2C(F)(F)F)CC1 discrete_label=inactive
compound=Cc1ccc(F)cc1N/C=c1\s/c(=C(\C#N)C(=O)Nc2ccccc2)n(-c2ccccc2)c1=O discrete_label=inactive

**Q:** For CC(C)NC(=O)c1cc(-c2ccc(NC(=O)Nc3ccc(N4CCN(C)CC4)c(C(F)(F)F)c3)cc2)nc2cccnc12 , which call appears in the assay record?
**A:** active

**Q:** Called result for O=C1Nc2ccc(Cl)cc2/C1=C/c1cccc(OCc2ccccn2)c1
**A:** active

**Q:** So what was the verdict on O=C(Nc1ccc(OCc2ccccc2)cc1)Nc1ccc(Cl)c(C(F)(F)F)c1 in this test?
**A:** active
